System: SF-295 CNS
Assay: NCI-60 one-dose screen, 48 h (100 = growth as untreated, 0 = no growth, -100 = all killed)
Settings: 10 µM unless noted
Compounds without any hit were thinned out: in the full panel of roughly 83,000, 20% have a hit.
In this section we review reported growth values for a set of compounds.
Supply the numeric figure in %, leaving out any unit text.

Look over these answered cases.
CCC(=O)C(CC(C)N1CCCCCC1)(c1ccccc1)c1ccccc1 (centres undefined) :: 89.7
C[N+]1(C)CCCC1c1cccnc1 (centres undefined) :: 100
O=c1[nH]c(=O)[nH]c(=O)[nH]1 :: 97.6
C[C@]12CC[C@H](O)C[C@@H]1CC[C@@H]1[C@@H]2CC[C@]2(C)OC(=O)CC[C@@H]12 :: 93.9

### Prompt Consider the compound "Cc1cc(NC(=O)NCCCOc2ccc(N3C(N)=NC(N)=NC3(C)C)cc2Cl)ccc1S(=O)(=O)F" and give its measured growth.
### Response 30.4

### Prompt Consider the compound "CC[C@H](C)[C@H](NC(=O)[C@H]1CCCCN1C)C(=O)N(C)[C@H](C[C@@H](OC(C)=O)c1nc(C(=O)N[C@@H](Cc2ccccc2)C[C@H](C)C(=O)O)cs1)C(C)C" and give its measured growth.
### Response 8.04

### Prompt Consider the compound "O=C(O)c1cc([N+](=O)[O-])cc([N+](=O)[O-])c1" and give its measured growth.
### Response 101
